Test system: IL-4
methodDescription: IL-4 release in supernatants of LPS-treated primary microglial cells (ELISA)
Assay type: cell-based, Wistar rats
conditions: Rattus norvegicus; inhibition of LPS-induced cytokine release, 72 h; read-out: IL-4 IC50
reportedProperty: IC50

Data request: Need IC50 of C=C(C)[C@@H]1CC(=O)[C@H]2[C@H](C1)[C@@H]1C(=O)O[C@@H]3C[C@@]4(C)O[C@H]2C(=O)[C@@H]4[C@H]13 [Compound 6, ineleganolide] , thanks.
Data returned: > 12.5 µg/mL

Data request: Need IC50 of C=C(C)[C@@H]1C/C=C2\C(=O)O[C@@H](C[C@]3(C)CC(=O)[C@@H](CC(=O)C1)O3)[C@@H]2O [Compound 2, sinuleptolide] , thanks.
Data returned: 0.5 µg/mL

Data request: Need IC50 of C=C(C)[C@@H]1C/C=C2\C(=O)O[C@@H](C[C@]3(C)CC(=O)[C@H](CC(=O)C1)O3)[C@@H]2O [Compound 1, 5-epi-sinuleptolide] , thanks.
Data returned: > 12.5 µg/mL

Data request: Need IC50 of C=C(C)C1CCC23OC2C(CC2(C)CC(=O)C(CC(=O)C1)O2)OC3=O (stereo not shown) [Compound 3, scabrolide D] , thanks.
Data returned: > 12.5 µg/mL
